These data points were gathered from patent US20240116985A1.

// values below are reported IC50
Biological target: full-length beta-Catenin (Uniprot ID P35222) (Homo sapiens)
Construct: 10 nM full-length beta-Catenin (Uniprot ID P35222)
Sequence (P35222 1-781): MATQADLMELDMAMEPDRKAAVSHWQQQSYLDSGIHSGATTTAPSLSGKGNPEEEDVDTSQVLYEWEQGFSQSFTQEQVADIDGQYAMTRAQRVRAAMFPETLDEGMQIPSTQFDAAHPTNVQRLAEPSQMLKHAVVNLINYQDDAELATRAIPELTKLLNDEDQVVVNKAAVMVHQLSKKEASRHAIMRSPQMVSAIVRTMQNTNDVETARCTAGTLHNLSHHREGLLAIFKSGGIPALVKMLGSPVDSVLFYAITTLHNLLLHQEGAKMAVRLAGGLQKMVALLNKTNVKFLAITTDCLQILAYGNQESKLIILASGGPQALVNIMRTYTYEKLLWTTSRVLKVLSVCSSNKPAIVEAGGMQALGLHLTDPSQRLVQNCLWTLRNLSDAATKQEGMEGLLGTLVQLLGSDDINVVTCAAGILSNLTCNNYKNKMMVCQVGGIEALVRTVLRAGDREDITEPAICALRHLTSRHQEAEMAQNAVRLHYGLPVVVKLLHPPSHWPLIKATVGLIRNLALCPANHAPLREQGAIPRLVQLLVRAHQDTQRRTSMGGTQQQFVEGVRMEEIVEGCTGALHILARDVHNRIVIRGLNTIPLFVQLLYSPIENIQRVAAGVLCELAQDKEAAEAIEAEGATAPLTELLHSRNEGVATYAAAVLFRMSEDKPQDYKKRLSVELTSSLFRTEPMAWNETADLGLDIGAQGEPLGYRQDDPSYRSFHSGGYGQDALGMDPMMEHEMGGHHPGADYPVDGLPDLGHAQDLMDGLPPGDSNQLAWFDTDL
Experiment: Fluorescence polarization IC50 (beta-catenin / 5FAM-TCF4 10-53 competition)
Format: binding
Details: fluorescence polarization; read-out: beta-Catenin FP IC50
Numbers only; they are read as nM.

compound | assayed.target | output.unit | IC50
CC(=O)N1CCC[C@]12CC=CCCCC1(CCCC=CCCCOC(=O)N3CC[C@@](C(=O)N[C@@H](Cc4ccccc4Cl)C(=O)N[C@@H](Cc4csc5ccccc45)C(=O)N[C@@H](CO)C(N)=O)(C3)NC(=O)[C@H](CC(C)C)NC(=O)[C@H](Cc3ccccc3)NC(=O)[C@H](C)NC(=O)[C@H](CO)NC(=O)[C@H](Cc3cccc(C(=O)O)c3)NC(=O)[C@H](CC(=O)O)NC1=O)NC(=O)[C@H](CC(C)(C)C)NC(=O)[C@H](CC(=O)O)NC2=O (stereo partly drawn) [I-1901] | full-length beta-Catenin (Uniprot ID P35222) (Homo sapiens) | nM | 34
CC(=O)N1CCC[C@]12CC=CCCCC1(CCCC=CCCCOC(=O)N3CC[C@@](C(=O)N[C@@H](Cc4ccccc4C(F)(F)F)C(=O)N[C@@H](Cc4csc5ccccc45)C(=O)N[C@@H](CO)C(N)=O)(C3)NC(=O)[C@H](CC(C)C)NC(=O)[C@H](Cc3ccccc3)NC(=O)[C@H](C)NC(=O)[C@H](C)NC(=O)[C@H](Cc3ccccc3C(=O)O)NC(=O)[C@H](CC(=O)O)NC1=O)NC(=O)[C@H](CC(C)(C)C)NC(=O)[C@H](CC(=O)O)NC2=O (single isomer, unassigned) [I-1660] | full-length beta-Catenin (Uniprot ID P35222) (Homo sapiens) | nM | 99
CC(=O)N1CCC[C@]12CC=CCCCC1(CCCC=CCCCOC(=O)N3CC[C@@](C(=O)N[C@@H](Cc4ccsc4)C(=O)N[C@@H](Cc4ccc(C)c(C)c4)C(=O)N[C@@H](CCC(N)=O)C(N)=O)(C3)NC(=O)[C@H](CC(C)C)NC(=O)[C@H](Cc3ccccc3)NC(=O)[C@H](C)NC(=O)[C@H](C)NC(=O)[C@H](Cc3cccc(C(=O)O)c3)NC(=O)[C@H](CC(=O)O)NC1=O)NC(=O)[C@H](CC(C)(C)C)NC(=O)[C@H](CC(=O)O)NC2=O (stereo partly drawn) | full-length beta-Catenin (Uniprot ID P35222) (Homo sapiens) | nM | 5
CC(=O)N1CCC[C@]12CCCCCCC1(CCCCCCOC(=O)N3CC[C@@](C(=O)N[C@@H](Cc4ccsc4)C(=O)N[C@@H](Cc4csc5ccccc45)C(=O)N[C@@H](CCC(N)=O)C(N)=O)(C3)NC(=O)[C@H](CC(N)=O)NC(=O)[C@H](Cc3ccccc3)NC(=O)[C@H](C)NC(=O)[C@H](C)NC(=O)[C@H](CC(=O)O)NC(=O)[C@H](CC(=O)O)NC1=O)NC(=O)[C@H](CC(C)(C)C)NC(=O)[C@H](CC(=O)O)NC2=O (stereo partly drawn) | full-length beta-Catenin (Uniprot ID P35222) (Homo sapiens) | nM | 41

Inquiry: # return recorded IC50 for entry CC(=O)N1CCC[C@]12CC=CCCCC1(CCCC=CCCCCCC[C@@](C)(C(=O)N[C@@H](Cc3ccsc3)C(=O)N[C@@H](Cc3csc4ccccc34)C(N)=O)NC(=O)[C@H](CC(N)=O)NC(=O)[C@H](Cc3ccccc3)NC(=O)[C@H](C)NC(=O)[C@H](C)NC(=O)[C@H](CCC(=O)O)NC(=O)[C@H](CC(=O)O)NC1=O)NC(=O)[C@H](CC(C)(C)C)NC(=O)[C@H](CC(=O)O)NC2=O (stereo partly drawn) [I-718]
Reply text: 82

Inquiry: # return recorded IC50 for entry CC[C@H](C)[C@@H]1NC(=O)[C@H](CC(=O)O)NC(=O)[C@]2(CC=CCCCC3(CCCC=CCCCCCC[C@@](C)(C(=O)N[C@@H](Cc4ccccc4)C(=O)N[C@@H](Cc4csc5ccccc45)C(=O)N[C@@H](CCC(N)=O)C(N)=O)NC(=O)[C@H](CCC(N)=O)NC(=O)[C@H](Cc4ccccc4)NC(=O)[C@H](C)NC(=O)[C@H](CCC(N)=O)NC(=O)[C@H](CCC(=O)O)NC(=O)[C@H](CC(=O)O)NC3=O)NC1=O)CCCN2C(C)=O (stereo partly drawn) [I-654]
Reply text: 20

Inquiry: # return recorded IC50 for entry CC(=O)N1CCC[C@]12CC=CCCCC1(CCCC=CCCCCCC[C@@](C)(C(=O)N[C@@H](Cc3ccccc3F)C(=O)N[C@@H](Cc3csc4ccccc34)C(=O)N[C@@H](CCC(N)=O)C(N)=O)NC(=O)[C@H](CC(N)=O)NC(=O)[C@H](Cc3ccccc3)NC(=O)[C@H](C)NC(=O)[C@H](C)NC(=O)[C@H](CCC(=O)O)NC(=O)[C@H](CC(=O)O)NC1=O)NC(=O)[C@H](C)NC(=O)[C@H](CC(=O)O)NC2=O (stereo partly drawn)
Reply text: 67.5

Inquiry: # return recorded IC50 for entry CC(=O)N1CCC[C@]12CC=CCCCC1(CCCC=CCCCOC(=O)N3CC[C@@](C(=O)N[C@@H](Cc4ccccc4Cl)C(=O)N[C@@H](Cc4csc5ccccc45)C(=O)N[C@@H](CCC(N)=O)C(=O)N[C@H](CO)Cc4ccccc4)(C3)NC(=O)[C@H](CC(C)C)NC(=O)[C@H](Cc3ccccc3)NC(=O)[C@H](C)NC(=O)[C@H](C)NC(=O)[C@H](Cc3cccc(C(=O)O)c3)NC(=O)[C@H](CC(=O)O)NC1=O)NC(=O)[C@H](CC(C)(C)C)NC(=O)[C@H](CC(=O)O)NC2=O (stereo partly drawn)
Reply text: 147

Inquiry: # return recorded IC50 for entry CC(=O)N1CCC[C@]12CC=CCCCC1(CCCC=CCCCOC(=O)N3CC[C@@](C(=O)N[C@@H](Cc4ccccc4C(F)(F)F)C(=O)N[C@@H](Cc4csc5ccccc45)C(=O)N[C@@H](CCC(N)=O)C(=O)N[C@@H](CC(C)C)C(=O)NC4(C(N)=O)CC4)(C3)NC(=O)[C@H](CC(C)C)NC(=O)[C@H](Cc3ccccc3)NC(=O)[C@H](C)NC(=O)[C@H](C)NC(=O)[C@H](Cc3cccc(C(=O)O)c3)NC(=O)[C@H](CC(=O)O)NC1=O)NC(=O)[C@H](CC(C)(C)C)NC(=O)[C@H](CC(=O)O)NC2=O (stereo partly drawn)
Reply text: 72

----------
Target: full-length beta-Catenin (Uniprot ID P35222) (Homo sapiens, UniProt P35222)
Construct: 10 nM full-length beta-Catenin (Uniprot ID P35222)
Assay: Fluorescence polarization IC50 (beta-catenin / 5FAM-TCF4 10-53 competition)
Assay type: binding
Details: read-out: FP EC50
outcome.measure: IC50 (nM)
Numbers only; they are read as nM.

Illustrative cases are given below, each with its answer.
compound | assayed.target | output.unit | IC50
CC[C@H](C)[C@@H]1NC(=O)C[C@H](C(=O)O)NC(=O)[C@]2(CC=CCCCC3(CCCC=CCCCCCC[C@@](C)(C(=O)N[C@@H](Cc4ccccc4)C(=O)N[C@@H](Cc4csc5ccccc45)C(=O)N[C@@H](CCC(N)=O)C(N)=O)NC(=O)[C@H](CCC(N)=O)NC(=O)[C@H](Cc4ccccc4)NC(=O)[C@H](C)NC(=O)[C@H](C)NC(=O)[C@H](CCC(=O)O)NC(=O)[C@H](CC(=O)O)NC3=O)NC1=O)CCCN2C(C)=O (stereo partly drawn) [I-669] | full-length beta-Catenin (Uniprot ID P35222) (Homo sapiens, UniProt P35222) | nM | 451
CC(=O)N1CCC[C@]12CC=CCCCC1(CCCC=CCCCCCC[C@@](C)(C(=O)N[C@@H](Cc3ccccc3)C(=O)N[C@@H](Cc3csc4ccccc34)C(=O)N[C@@H](CCC(N)=O)C(N)=O)NC(=O)[C@H](CCC(N)=O)NC(=O)[C@H](Cc3ccccc3)NC(=O)[C@H](C)NC(=O)[C@H](C)NC(=O)[C@H](CCC(=O)O)NC(=O)[C@H](CC(=O)O)NC1=O)NC(=O)[C@H](CCCCNC(=O)CN=[N+]=[N-])NC(=O)[C@H](CC(=O)O)NC2=O (stereo partly drawn) [I-589] | full-length beta-Catenin (Uniprot ID P35222) (Homo sapiens, UniProt P35222) | nM | 48

Now take the following compound into account.
Inquiry: # return recorded IC50 for entry CC[C@H](C)[C@@H]1NC(=O)[C@H](CC(=O)O)NC(=O)[C@]2(CC=CCCCC3(CCCC=CCCCCCC[C@@](C)(C(=O)N[C@@H](Cc4ccsc4)C(=O)N[C@@H](Cc4csc5ccccc45)C(N)=O)NC(=O)[C@H](CC(N)=O)NC(=O)[C@H](Cc4ccccc4)NC(=O)[C@H](C)NC(=O)[C@H](C)NC(=O)[C@H](CCC(=O)O)NC(=O)[C@H](CC(=O)O)NC3=O)NC1=O)CCCN2C(C)=O (stereo partly drawn) [I-721]
Reply text: 46
